- System: HEK-293T
- procedure_summary: Multiplex assay against HEK293T
- Assay type: toxicity, cell-based
- protocol_conditions: human, 24 h, 1 µM, compound concentration 1 uM, replicate 2
Parameter: Population Mitotic Cells (%). Scope: all listed entries.
Please answer using a numeric value trailed by its unit.

Past entries and their recorded results:
>  <molecule>
CN1CCCC(n2nc(Cc3ccc(Cl)cc3)c3ccccc3c2=O)CC1.Cl (centres undefined) [AZELASTINE HYDROCHLORIDE]

>  <experimental_system>
HEK-293T

>  <observable>
Population Mitotic Cells (%)

>  <value_measured>
50%

$$$$
>  <molecule>
CN1CCN(c2ccc(OC(F)(F)F)c(Nc3ncc4c(n3)-c3c(c(C(N)=O)nn3CCO)CC4)c2)CC1

>  <experimental_system>
HEK-293T

>  <observable>
Population Mitotic Cells (%)

>  <value_measured>
84%

$$$$
>  <molecule>
CC(C)(O)CNc1ncc(-c2ccnc(Nc3ccnc(Cl)c3)n2)c(CC2CC2)n1

>  <experimental_system>
HEK-293T

>  <observable>
Population Mitotic Cells (%)

>  <value_measured>
72%

$$$$
>  <molecule>
C[C@@]1(C(=O)Nc2ccc(F)nc2)CCCN1c1nc(Nc2cc(C3CC3)n[nH]2)c2cccn2n1

>  <experimental_system>
HEK-293T

>  <observable>
Population Mitotic Cells (%)

>  <value_measured>
82%

$$$$
>  <molecule>
CNc1nc(NCc2ccc(NS(C)(=O)=O)cc2Cl)cc(-c2ccccn2)n1

>  <experimental_system>
HEK-293T

>  <observable>
Population Mitotic Cells (%)

>  <value_measured>
83%

$$$$

Now for the molecule whose Population Mitotic Cells (%) we want.
Qu. # query: Population Mitotic Cells (%) of entry Cc1csc2c(N[C@@H](C)CN3CCN(S(=O)(=O)c4ccc(Cl)c(Cl)c4)CC3)ncnc12
Ans. 64%

====

- Test system: U2OS
- procedure_summary: Multiplex assay against U2OS
- Assay type: toxicity, cell-based
- protocol_conditions: human, 12 h, 10 µM, compound concentration 10 uM, replicate 1
observable: Population Apoptotic (%)
Please answer using a numeric value trailed by its unit.

>  <compound>
CN1CCC[C@@H]1CCO[C@](C)(c1ccccc1)c1ccc(Cl)cc1.O=C(O)/C=C/C(=O)O [CLEMASTINE FUMARATE]

>  <experimental_system>
U2OS

>  <Population Apoptotic (%)>
50%

$$$$
>  <compound>
C=CC(=O)Nc1cc2c(Nc3ccc(F)c(Cl)c3)ncnc2cc1OCCCN1CCOCC1.Cl.Cl [CANERTINIB DIHYDROCHLORIDE]

>  <experimental_system>
U2OS

>  <Population Apoptotic (%)>
22%

$$$$
>  <compound>
CN(C)CC#Cc1ccc(OCCCc2sc(N3CCc4cccc(C(=O)Nc5nc6ccccc6s5)c4C3)nc2C(=O)O)c(F)c1

>  <experimental_system>
U2OS

>  <Population Apoptotic (%)>
61%

$$$$
>  <compound>
Cc1nc(-c2cn3c(n2)-c2ccc(-c4cnn(C(C)(C)C(N)=O)c4)cc2OCC3)n(C(C)C)n1

>  <experimental_system>
U2OS

>  <Population Apoptotic (%)>
44%

$$$$
>  <compound>
CN(C)c1ncnc(-c2ccc3nc(Nc4cc(CN5CCN(C(=O)CC(F)(F)F)CC5)ccn4)[nH]c3c2)c1Cl

>  <experimental_system>
U2OS

>  <Population Apoptotic (%)>
23%

$$$$
>  <compound>
CNc1nc(NCc2ccc(NS(C)(=O)=O)cc2Cl)cc(-c2ccccn2)n1

>  <experimental_system>
U2OS

>  <Population Apoptotic (%)>
61%

$$$$

Qu. # query: Population Apoptotic (%) of entry c1cn2cc(-c3ccc4cn[nH]c4c3)nc(Nc3ccc(N4CCOCC4)cc3)c2n1
Ans. 76%
